Assay: Biopharmaceutical properties of SMS: first pass effect and excretion
Assay type: in vivo
Details: rat, bile; read-out: excreted as the unchanged drug in the bile
Measured Metric: dose excreted

Give the measured dose excreted of C[C@@H](O)[C@@H]1NC(=O)[C@H](CCCCN)NC(=O)[C@@H](Cc2c[nH]c3ccccc23)NC(=O)[C@H](Cc2ccccc2)NC(=O)[C@@H](NC(=O)[C@H](N)Cc2ccccc2)CSSC[C@@H](C(=O)N[C@H](CO)[C@@H](C)O)NC1=O [SMS, octreotide] .
~80%

----------
Experiment: Biopharmaceutical properties of SMS: first pass effect and excretion
Format: in vivo
Details: rat, urine; read-out: excreted as the unchanged drug in the urine
Measured Metric: dose excreted

Which dose excreted value belongs to C[C@@H](O)[C@@H]1NC(=O)[C@H](CCCCN)NC(=O)[C@@H](Cc2c[nH]c3ccccc23)NC(=O)[C@H](Cc2ccccc2)NC(=O)[C@@H](NC(=O)[C@H](N)Cc2ccccc2)CSSC[C@@H](C(=O)N[C@H](CO)[C@@H](C)O)NC1=O [SMS, octreotide] ?
~20%
